Read-out: Pselectin, SELP (gene 6403)
experimental.protocol: BSK_4H_Pselectin: BioMAP Diversity Plus: 4H Assay for Pselectin Biomarker Activity (AID 2283026)
conditions.used: primary human endothelial cells (HUVEC); actives raise or lower the signal
Calls of active or inactive are those of the source. Rule for the calls: active = hit-call score of the fitted dose curve at least 0.9, where 1 is the maximum; inactive = score below 0.9.
The reply should name one outcome from yes (1) for active, no (0) for inactive

// known answers, use as guide
1) Cc1cc2c3c(c1)C(c1ccccc1)=N[C@@H](NC(=O)c1ccncc1)C(=O)N3CC2    no (0)
2) CC1=C2C[C@H]3[C@@H](CC=C4C[C@@H](O)CC[C@@]43C)[C@@H]2CC[C@]12O[C@@H]1C[C@H](C)CN[C@H]1[C@H]2C    no (0)
3) ClC1=C(Cl)[C@]2(Cl)[C@@H]3[C@@H]4C[C@@H]([C@H]5O[C@@H]45)[C@@H]3[C@@]1(Cl)C2(Cl)Cl    no (0)

What was the test verdict on CCOCCOC(C)=O ?
no (0)

Which outcome was assigned to CCCCCCOC(=O)c1ccccc1C(=O)OCCCCCC in this test?
yes (1)

Check the results log: what was the call for CC(c1ccc(O)cc1)(c1ccc(O)cc1)c1ccc(O)cc1 ?
yes (1)

Could you please tell me the result logged for CO/C=C(/C(=O)OC)c1ccccc1COc1cccc(C(F)(F)F)n1 in this assay?
no (0)

Hi, do you know how CCCCCCCCCc1ccc(O)cc1 came out in this test?
yes (1)

Status in this test for COc1ccc(O)c(C(C)(C)C)c1 ?
no (0)

What classification did O=C(O)C(F)(F)C(F)(F)C(F)(F)C(F)(F)C(F)(F)C(F)(F)C(F)(F)C(F)(F)F end up with in this test?
no (0)

Please indicate how the test categorized CCCCCCCCOC(=O)c1ccccc1C(=O)OCCCCCCCC .
no (0)

---

measured.on: Cellular tumor antigen p53 (Homo sapiens) (UniProt P04637)
Sequence (P04637 whole entry, looked up): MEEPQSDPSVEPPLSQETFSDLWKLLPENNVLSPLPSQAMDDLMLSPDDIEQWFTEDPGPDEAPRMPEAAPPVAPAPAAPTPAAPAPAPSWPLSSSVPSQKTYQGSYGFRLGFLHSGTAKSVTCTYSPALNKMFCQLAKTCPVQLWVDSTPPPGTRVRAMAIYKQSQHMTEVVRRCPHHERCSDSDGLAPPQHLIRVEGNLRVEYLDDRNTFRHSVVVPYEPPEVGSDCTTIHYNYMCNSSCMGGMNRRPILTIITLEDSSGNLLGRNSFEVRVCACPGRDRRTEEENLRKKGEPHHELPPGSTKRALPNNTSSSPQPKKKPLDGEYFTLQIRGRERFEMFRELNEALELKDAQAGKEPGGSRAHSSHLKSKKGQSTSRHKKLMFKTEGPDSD
experimental.protocol: TOX21_p53_BLA_p5_ratio: Tox21 HCT-116 p53 Agonism Beta-lactamase Assay, Ratio, Phase 5 (AID 2283599)
Records with an inconclusive call do not appear. The source made the active and inactive calls. The calls were made as follows: active = hit-call score of the fitted dose curve at least 0.9, where 1 is the maximum; inconclusive = response in the unintended direction; inactive = score below 0.9.
Write down one outcome, taken from active, inactive

1) CC1=C2C[C@H]3[C@@H](CC=C4C[C@@H](O)CC[C@@]43C)[C@@H]2CC[C@]12O[C@@H]1C[C@H](C)CN[C@H]1[C@H]2C    inactive

How was COS(=O)(=O)OC classified in this test?
inactive

Please state the recorded outcome for this compound: CCC(C)c1cc([N+](=O)[O-])cc([N+](=O)[O-])c1O (stereo not given)
active

Write down the call the test reported for this compound. Item: CC(C)(O)C(=O)Nc1ccc([N+](=O)[O-])c(C(F)(F)F)c1
inactive

Entry CO/C=C(/C(=O)OC)c1ccccc1COc1cccc(C(F)(F)F)n1 : call = ?
active

---

Read-out: Vascular cell adhesion molecule 1 (VCAM1), VCAM1 (gene 7412)
experimental.protocol: BSK_4H_VCAM1: BioMAP Diversity Plus: 4H Assay for Vascular cell adhesion molecule 1 (VCAM1) Biomarker Activity (AID 2283033)
conditions.used: primary human endothelial cells (HUVEC); actives raise or lower the signal
Active and inactive are the calls of the source. How the source made its calls: active means hit-call score of the fitted dose curve at least 0.9, where 1 is the maximum; inactive means score below 0.9.
One label from this list, please: active, inactive

Worked cases, answers included:
1) Cc1ccc(O)c(C)c1    active
2) CCOP(=S)(OCC)SCSC(C)(C)C    inactive
3) Cc1ccccc1CO[C@@H]1C[C@@]2(C(C)C)CC[C@]1(C)O2    inactive
4) CCC(C)(CC)c1cc(NC(=O)c2c(OC)cccc2OC)on1    inactive
5) ClC1=C(Cl)[C@]2(Cl)[C@@H]3[C@@H](Cl)[C@H]4O[C@H]4[C@@H]3C1(Cl)C2(Cl)Cl    inactive

Entry c1cc2ccc3cccc4ccc(c1)c2c34 : call = ?
active

Assay outcome for CC(C)C(=O)OCC(C)(C)C(OC(=O)C(C)C)C(C)C (stereo not drawn) : what was it?
inactive

Hi, do you know how Nc1ccc(-c2ccc(N)cc2)cc1 came out in this test?
inactive

For this compound, state the assay outcome: CCOC(=O)C(O)(c1ccc(Cl)cc1)c1ccc(Cl)cc1
active

Recorded call for O=NN(c1ccccc1)c1ccccc1 ?
inactive

What did this assay record as the result for CCNc1nc(NC(C)C)nc(SC)n1 ?
inactive

Name the outcome recorded for Cc1ccccc1[N+](=O)[O-] in the assay.
inactive

For ClC(Cl)=C(c1ccc(Cl)cc1)c1ccc(Cl)cc1 , which call appears in the assay record?
active
